These data points were gathered from patent US7655808B2.

tested on: CCRF-CEM; experiment: Inhibition of proliferation / cytotoxicity, CCRF-CEM; format: cell-based; conditions: CCRF-CEM human leukemia cell line; read-out: Tumor Cell Line (IC50, nM) CCRF-CEM

{"compound": "CCC(C=CC1OC(=O)C=CC1C)=CC(C)CC=CC(C)=CC(C)C(=O)C(C)C(O)C(C)CC(C)=CC(=O)NCC(=O)OC (stereo not drawn) [Compound 10]", "unit-name": "nM", "IC50": 0.63}
{"compound": "CCC(C=CC1OC(=O)C=CC1C)=CC(C)CC=CC(C)=CC(C)C(=O)C(C)C(O)C(C)CC(C)=CC(=O)NCc1ccc(-c2ccccc2)cc1 (stereo not drawn) [Compound 3]", "unit-name": "nM", "IC50": 3.5}
{"compound": "CCC(C=CC1OC(=O)C=CC1C)=CC(C)CC=CC(C)=CC(C)C(=O)C(C)C(O)C(C)CC(C)=CC(=O)Nc1ccc2cn[nH]c2c1 (stereo not drawn) [Compound 5]", "unit-name": "nM", "IC50": 3.1}
